Kindly supply the reported TGI values for the records listed here.
- Tested on: LOX IMVI melanoma
- ASSAY: NCI tumour cell line growth inhibition, 48 h

Prompt: Requested field: TGI. Item: `COc1ccc(C=O)c([N+](=O)[O-])c1`
Response: > 100 µM

Prompt: // next record O=C(O)C12C3CCC(CC3)C1(C(=O)O)C1CCC2C1 (stereo not drawn)
Response: > 100 µM

The record that follows has no TGI shown yet.
Prompt: Requested field: TGI. Item: COC(=O)C1(C)CCc2c(OC)ccc(OC)c2C1=O (stereo not drawn)
Response: > 100 µM

----------
Kindly supply the reported TGI values for the records listed here.
- Tested on: NCI-H226 lung
- ASSAY: NCI tumour cell line growth inhibition, 48 h
Give bare numbers, in µM.

Take a look at these entries with their results.
Prompt: Recall the recorded TGI for `OCCNCCN1CCN(CCCN2c3ccccc3Sc3ccc(C(F)(F)F)cc32)CC1` with NCI-H226 lung and state it.
Response: 49.9

Prompt: // next record `Cc1ccc(NC(Nc2ccc(C)cc2C)=C(/C=C(\Cl)[N+](=O)[O-])[N+](=O)[O-])c(C)c1`
Response: 22.1

The record that follows has no TGI shown yet.
Prompt: Recall the recorded TGI for `CC1(C)OC(=O)C(C#N)=C1/C=C/c1coc2ccc(Cl)cc2c1=O` with NCI-H226 lung and state it.
Response: 92.6
